system: K. pneumoniae; assay: MIC50/90 against small panels (n = 35); type: cell-based, Klebsiella pneumoniae; parameters: key: A: a MIC value measurement that is the same as that observed for polymyxin B; a MIC value measured that is lower than the comparable value observed for polymxin B; a MIC value measured that is higher than the comparable value observed for polymyxin B; settings: small panel n = 35, relative to polymyxin B
*1 amine or outer side, *2 acyl side, *3 side chain or, on linkers, in order; H or OH if unused. Where a SMILES comes first, the peptide text is derived from it. Bridges are numbered along the chain shown (N, C = ends). [ ]: non-standard residue; d: D form. The star is where a group is joined. ξ: configuration not given here. Thr(3ξ) = CC(O)[C@H](N)C(=O)O; NH(2-ClPh) = Clc1ccccc1N*; X1 = CC[C@H](C)CCCCC(=O)*; dDab = NCC[C@@H](N)C(=O)O; Dab = NCC[C@H](N)C(=O)O; CO = O=C([*:1])[*:2]; ξDab = NCCC(N)C(=O)O
EXPERIMENTAL READOUT: K. pneumoniae MIC50

{"COMPOUND": "CC(C)C[C@@H]1NC(=O)[C@@H](Cc2ccccc2)NC(=O)[C@H](CCN)NC(=O)C(NC(=O)[C@H](CCN)NC(=O)[C@@H](NC(=O)[C@H](CCN)NC(=O)Nc2ccccc2Cl)C(C)O)CCNC(=O)[C@H](C(C)O)NC(=O)[C@H](CCN)NC(=O)C(CCN)NC1=O (stereo partly drawn) [Formula (II) comparator] ({NH(2-ClPh)-CO}-[Dab][Thr(3ξ)][Dab][ξDab][Dab][dF]L[ξDab][Dab][Thr(3ξ)]; lactam 4-C)", "RESULT": "C"}
{"COMPOUND": "CC(C)C[C@H]1NC(=O)[C@H](CCN)NC(=O)[C@@H](NC(=O)[C@@H](CCN)NC(=O)[C@@H](NC(=O)[C@H](CCN)NC(=O)[C@H]2C[C@@H]2c2ccccc2)C(C)O)CCNC(=O)[C@H](C(C)O)NC(=O)[C@H](CCN)NC(=O)[C@H](CCN)NC(=O)[C@H](C(C)O)NC1=O (single isomer, unassigned)", "RESULT": "C"}
{"COMPOUND": "CC[C@H](C)CCCCC(=O)N[C@@H](CCN)C(=O)N[C@H](C(=O)N[C@H](CCN)C(=O)N[C@H]1CCNC(=O)[C@H]([C@@H](C)O)NC(=O)[C@H](CCN)NC(=O)[C@H](CCN)NC(=O)[C@H]([C@@H](C)O)NC(=O)[C@@H](CC(C)C)NC(=O)[C@H](CCN)NC1=O)[C@@H](C)O [Native Polymyxin A, Polymyxin A] (X1-[Dab]T[dDab][Dab][Dab][dL]T[Dab][Dab]T; lactam 4-C)", "RESULT": "C"}
